# measured-target: plasma purified human antithrombin III (AT-III) in complex with full-length unfractionated heparin (UFH)
readout-label: K0.5-mut/K0.5-wt (fold)
Numbers only; they are read as fold.

Short answer for FIXa Y155F/K228N/K247N/N249S (protein) chain 1: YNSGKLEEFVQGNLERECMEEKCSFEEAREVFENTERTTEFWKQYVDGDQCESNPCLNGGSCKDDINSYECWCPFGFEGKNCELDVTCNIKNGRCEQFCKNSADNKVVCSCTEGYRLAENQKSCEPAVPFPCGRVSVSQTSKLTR chain 2: VVGGEDAKPGQFPWQVVLNGKVDAFCGGSIVNEKWIVTAAHCVETGVNITVVAGEHNIEETEHTEQNRSVIRIIPHHNYNAAINKYNHDIALLELDEPLVLNSYVTPICIADKEYTNIFLKFGSGYVSGWGRVFHKGRSALVLQYLRVPLVDRATCLRSTKFTIYNNMFCAGFHEGGRDSCQGDSGGPHVTEVEGTSFLTGIISWGEECAMKGKYGIYTKVSRYVNWIKEKTKLT : K0.5-mut/K0.5-wt was 1.4
